Recorded TGI, one value per entry.
# System: UACC-62 melanoma
# TEST NAME: NCI tumour cell line growth inhibition, 48 h
METRIC: TGI (µM)

COMPOUND	ASSAY SYSTEM	OUTPUT UNIT	REPORTED RESULT
Cc1cccc2c(N)c3cccc(C(=O)NCC[N+](C)(C)Cc4sccc4[N+](=O)[O-])c3nc12	UACC-62 melanoma	µM	36
COc1ccc2c3c(n(Cc4ccccc4)c(=O)c2c1)-c1cc(OC)c(OC)cc1C3C (centres undefined)	UACC-62 melanoma	µM	69.9
N#Cc1c(NCCc2ccc(F)cc2)c2ccccc2n2c1nc1ccccc12	UACC-62 melanoma	µM	32.8
CC1CCN(CCCCCOc2ccc3oc4cc(Cl)ccc4c(=O)c3c2)CC1	UACC-62 melanoma	µM	7.73
CC/C=C\C/C=C\C[C@H](O)C/C=C1/C(=O)C=C[C@@H]1C/C=C\CCCC(=O)O	UACC-62 melanoma	µM	8.02
C=C1CC[C@@H](Br)C(C)(C)[C@]12CCC(C)(O)C(Cl)C2 (some centres undefined)	UACC-62 melanoma	µM	41.4
O=C1c2ccccc2C(=O)c2c(NCCNCCO)ccc(O)c21	UACC-62 melanoma	µM	13.6
O=C(NNc1ccnc2cc(Cl)ccc12)/C(=C\c1ccccc1Cl)NC(=O)c1ccccc1	UACC-62 melanoma	µM	70.9
Cn1cc(-c2cnc(-c3cn(C)c4ccccc34)cn2)c2ccccc21	UACC-62 melanoma	µM	31.3
c1ccc(-c2cc(C3CO3)c3ccccc3n2)cc1 (centres undefined)	UACC-62 melanoma	µM	33.7
O=C(c1ccco1)c1nc2cc(F)ccc2[n+]([O-])c1C(F)(F)F	UACC-62 melanoma	µM	68.2

* * *

Recorded TGI, one value per entry.
# Test system: SF-295 CNS
# TEST NAME: NCI tumour cell line growth inhibition, 48 h
METRIC: TGI

COMPOUND	REPORTED RESULT
Cc1c(C(=O)C/C(=N/NC(=O)C[n+]2ccccc2)C(=O)Nc2ccccc2)[n+](=O)c2ccccc2n1O	> 100 µM
O=c1[nH]c(=O)n(C2OC(CO)C(O)C2O)c2ccsc12 (centres undefined)	> 100 µM
O=C(Nc1ccc(CN2CCOCC2)cc1)c1[nH]ncc1Nc1ncnc2sccc12	16.5 µM
Cc1ccc(C)c(NC(=O)NCc2ccc(Cl)cc2)c1	> 100 µM
N/C(=N\N=C\c1c[nH]c2cc(C(F)(F)F)ccc2c1=O)NO	> 10 µM
CC1(C)CCc2cc3c(cc2O1)OCC1c2cc4c(cc2OC31)OCO4 (centres undefined)	> 100 µM
Cc1nn(C(=O)c2ccc(Cl)cc2)c2c1C(c1cccc([N+](=O)[O-])c1)SC(N)=N2 (centres undefined)	> 10 µM
O=C(O)c1cc2cc(c1)N=Cc1ccccc1OCc1cccc(n1)COc1ccccc1C=N2	22.1 µM
N#Cc1nc(COCc2ccccc2)oc1N	> 100 µM
CCN(CC)CCCNc1nc(=O)[nH]c(C)c1C(=O)Nc1c2ccccc2nc2ccccc12	27.3 µM
Nc1nncc2c1ccn2C1OC(CO)C(O)C1O (centres undefined)	> 100 µM
O=C1C(C(c2ccccc2)N2CCOCC2)=C(O)C(c2ccccc2)N1c1ccccc1 (centres undefined)	> 10 µM
C=C1CCCCCCCCCCC12SCCC2CCCCSC (centres undefined)	38.3 µM
NC(N)=NC(P(=O)(O)O)P(=O)(O)O	> 100 µM
Cc1ccc(/C(=C\C(=O)C(=O)NC23CC4CC(CC(C4)C2)C3)Sc2ccccc2)cc1	> 10 µM
O=C(O)c1ccc([N+]2=Cn3c(nc4ccccc43)C2)cc1	> 100 µM
COC1CCC(O)C(/C=C/[N+](=O)[O-])C1 (centres undefined)	23.9 µM
CCCCCCCCOC(CO)CO	> 100 µM
Cn1c(O)c(C(/C=C/c2ccccc2)=NCCN=C(/C=C/c2ccccc2)c2c(O)n(C)c(=O)n(C)c2=O)c(=O)n(C)c1=O	> 50 µM
COc1ccc(N=Nc2c(-c3ccccc3)nn(C(=O)CC(=O)Nc3cccc(Cl)c3)c2-c2ccccc2)cc1	> 100 µM
CCOC(=O)c1c2c(n(Cc3ccccc3)c1C)-c1ccccc1C(=O)C2=O	48.4 µM
COc1ccc2c3c(n(Cc4ccccc4)c(=O)c2c1)-c1cc(OC)c(OC)cc1C3C (centres undefined)	31.4 µM
O=C(Nc1ccc(Oc2ccc3nc(NC(=O)c4ccccc4)[nH]c3c2)cc1)Nc1cc(C(F)(F)F)ccc1F	4.49 µM
COc1ccc2c(c1)[n+]([O-])c(-c1ccccc1)c(N)[n+]2[O-]	> 100 µM
COc1ccc2c(c1)c1c(n2CCN(C)C)-c2cccc(OC)c2CC1	35.9 µM
CC1(C)CC(=O)C2=C(C1)S/C(=C1/SC3=C(S1)C(=O)CC(C)(C)C3)S2	> 251 µM
CC(=O)OCC(=O)O[C@@H]1C[C@]2(C(C)C)O[C@@]1(C)[C@@H]1CC[C@@H](C)[C@H]1[C@@H]2OC(=O)/C=C/c1ccccc1	43.9 µM
N=c1nc2n(cc1F)[C@@H]1O[C@H](CO)[C@@H](O)[C@@H]1O2	> 100 µM
O=c1cc(N2CCNCC2)oc2c(-c3ccccc3)cccc12	> 100 µM
O=C1c2ccccc2-c2c1c(-c1ccc([N+](=O)[O-])cc1)nc1ccc3ccccc3c21	> 100 µM
COc1cc(=O)n2c3ccccc3n(C)c2c1C#N	> 100 µM
Cc1cccc2c(N)c3cccc(C(=O)NCC[N+](C)(C)Cc4sccc4[N+](=O)[O-])c3nc12	> 100 µM
O=C(O)c1ccc(-c2nc3ccc(Cl)cc3[nH]2)cc1	> 100 µM
O=C1OCCC1C(O)C1c2ccccc2-c2ccccc21 (centres undefined)	> 100 µM
CCCCCC(=O)Nc1nc[nH]c1C(N)=O	> 100 µM
C1=Nc2sc3c(c2C2=NCCN12)CCCC3	39.6 µM
O=C1c2ccccc2C(=Cc2ccccc2)c2ccccc21	13.6 µM
Cc1cc(=O)[nH]o1	> 100 µM
O=C(Nc1ccc(Cl)cc1F)c1cc(I)ccc1O	3.75 µM
CC1CCC(O)(C(C)(C(=O)O)c2ccccc2)CC1 (centres undefined)	> 100 µM
CCCc1c[nH]c(-c2ccc(-c3cc(CCC)c(C=O)[nH]3)s2)c1	33.1 µM
Cc1cccc(C(=O)/C=C/SC(=NC#N)SCc2ccccc2)c1	88.6 µM
O=C(CCl)NC(Cc1ccc(F)cc1)C(=O)O (centres undefined)	> 100 µM
O=C(c1ccco1)c1nc2cc(F)ccc2[n+]([O-])c1C(F)(F)F	> 100 µM
